STUDY_SYSTEM: NT-3 growth factor receptor (Homo sapiens);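 also: mean percent inhibition of TRKC, reported within the GSK PKIS dataset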
EXPERIMENTAL_PARAMETERS: at 0.1 µM
ASSAY_METRIC: inhibition
// return the numeric value with its unit appended

| SMI | VALUE_OBSERVED |
| --- | --- |
| COc1ccc2c(-c3ccnc(Nc4cccc(OC(F)(F)F)c4)n3)cnn2n1 | 2.73% |
| COc1ccc(-c2nn3ncccc3c2-c2ccnc(Nc3ccc4c(c3)OCCO4)n2)cc1 | -1.55% |
| c1ccc(-c2nc3n(c2-c2ccc4c(c2)OCO4)CCC3)nc1 | -0.01% |

Task: Look up inhibition: `N#Cc1c(NC(=O)c2ccc(F)cc2)sc2c1CCCC2`
Output: 0.15%

Task: Look up inhibition: `COc1cc(Nc2nccc(Nc3ccc4c(C)n[nH]c4c3)n2)cc(OC)c1OC`
Output: -0.03%

---

STUDY_SYSTEM: Serine/threonine-protein kinase pim-2 (Homo sapiens);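 also: each value is a mean of the inhibition measurements against the kinase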
EXPERIMENTAL_PARAMETERS: at 1 µM
Documented inhibition across a set of compounds
Please state the figure in %; there is no need to write the unit.

Past entries and their recorded results:
| SMI | inhibition / % |
| --- | --- |
| COc1ccc(-c2cc(-c3c[nH]nc3-c3ccccn3)ccn2)cc1 | 1.29 |
| CNC(=O)c1cc(-c2ccc(F)cc2)cc(-c2ccc(S(=O)(=O)N3CCCC3)cc2)c1N | 0.43 |
| COc1cc(N2CCN(C(C)C)CC2)ccc1Nc1nc(Nc2ccc(F)cc2C(N)=O)c2cc[nH]c2n1 | 1.98 |
| CC(C)COC(=O)c1ccc2c(c1)/C(=C/Nc1ccc(S(N)(=O)=O)cc1)C(=O)N2 | 5.85 |

Lab note: next compound to report on.
Task: For the record `Fc1ccc(-c2nn3ncccc3c2-c2ccnc(Nc3ccc4c(c3)OCCO4)n2)cc1` , what value of inhibition is listed for Serine/threonine-protein kinase pim-2 (Homo sapiens)?
Output: -0.97

---

STUDY_SYSTEM: cGMP-dependent protein kinase 1 (Homo sapiens) (UniProt Q13976);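 also: listed percent inhibition of PRKG1 is a mean value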
Sequence (Q13976 whole entry): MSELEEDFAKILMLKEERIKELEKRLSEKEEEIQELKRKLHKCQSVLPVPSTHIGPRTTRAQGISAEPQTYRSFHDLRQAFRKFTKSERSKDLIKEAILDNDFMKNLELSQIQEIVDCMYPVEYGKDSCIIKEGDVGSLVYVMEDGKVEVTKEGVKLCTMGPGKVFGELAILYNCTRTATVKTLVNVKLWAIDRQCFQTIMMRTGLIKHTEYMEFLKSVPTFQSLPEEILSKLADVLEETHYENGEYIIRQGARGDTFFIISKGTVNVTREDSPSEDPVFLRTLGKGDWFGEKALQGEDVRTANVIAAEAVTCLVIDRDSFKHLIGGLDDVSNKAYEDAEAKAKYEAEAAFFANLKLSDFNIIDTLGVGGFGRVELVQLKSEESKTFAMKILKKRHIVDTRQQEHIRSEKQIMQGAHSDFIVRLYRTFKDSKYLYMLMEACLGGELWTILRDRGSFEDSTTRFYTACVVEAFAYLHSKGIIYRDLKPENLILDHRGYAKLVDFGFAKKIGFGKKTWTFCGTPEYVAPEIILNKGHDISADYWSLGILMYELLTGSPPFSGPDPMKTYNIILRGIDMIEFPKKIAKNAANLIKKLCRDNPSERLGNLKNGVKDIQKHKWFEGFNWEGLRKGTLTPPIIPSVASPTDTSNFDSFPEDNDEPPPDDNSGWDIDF
EXPERIMENTAL_PARAMETERS: at 1 µM
Documented inhibition across a set of molecules
Please state the figure in %; there is no need to write the unit.

Task: For the record `Fc1ccc(-c2nn3ncccc3c2-c2ccnc(Nc3ccc4c(c3)OCCO4)n2)cc1` , what value of inhibition is listed for cGMP-dependent protein kinase 1 (Homo sapiens) (UniProt Q13976)?
Output: 4.25

Task: For the record `CCN1CCC(CC(=O)Nc2n[nH]c3nnc(-c4cccc(F)c4F)cc23)CC1` , what value of inhibition is listed for cGMP-dependent protein kinase 1 (Homo sapiens) (UniProt Q13976)?
Output: 0.47

---

STUDY_SYSTEM: ALK tyrosine kinase receptor (Homo sapiens) (UniProt Q9UM73);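 also: values are mean percent inhibition of ALK, screened as part of the GSK PKIS panel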
Sequence (Q9UM73 19-1620 limits assumed): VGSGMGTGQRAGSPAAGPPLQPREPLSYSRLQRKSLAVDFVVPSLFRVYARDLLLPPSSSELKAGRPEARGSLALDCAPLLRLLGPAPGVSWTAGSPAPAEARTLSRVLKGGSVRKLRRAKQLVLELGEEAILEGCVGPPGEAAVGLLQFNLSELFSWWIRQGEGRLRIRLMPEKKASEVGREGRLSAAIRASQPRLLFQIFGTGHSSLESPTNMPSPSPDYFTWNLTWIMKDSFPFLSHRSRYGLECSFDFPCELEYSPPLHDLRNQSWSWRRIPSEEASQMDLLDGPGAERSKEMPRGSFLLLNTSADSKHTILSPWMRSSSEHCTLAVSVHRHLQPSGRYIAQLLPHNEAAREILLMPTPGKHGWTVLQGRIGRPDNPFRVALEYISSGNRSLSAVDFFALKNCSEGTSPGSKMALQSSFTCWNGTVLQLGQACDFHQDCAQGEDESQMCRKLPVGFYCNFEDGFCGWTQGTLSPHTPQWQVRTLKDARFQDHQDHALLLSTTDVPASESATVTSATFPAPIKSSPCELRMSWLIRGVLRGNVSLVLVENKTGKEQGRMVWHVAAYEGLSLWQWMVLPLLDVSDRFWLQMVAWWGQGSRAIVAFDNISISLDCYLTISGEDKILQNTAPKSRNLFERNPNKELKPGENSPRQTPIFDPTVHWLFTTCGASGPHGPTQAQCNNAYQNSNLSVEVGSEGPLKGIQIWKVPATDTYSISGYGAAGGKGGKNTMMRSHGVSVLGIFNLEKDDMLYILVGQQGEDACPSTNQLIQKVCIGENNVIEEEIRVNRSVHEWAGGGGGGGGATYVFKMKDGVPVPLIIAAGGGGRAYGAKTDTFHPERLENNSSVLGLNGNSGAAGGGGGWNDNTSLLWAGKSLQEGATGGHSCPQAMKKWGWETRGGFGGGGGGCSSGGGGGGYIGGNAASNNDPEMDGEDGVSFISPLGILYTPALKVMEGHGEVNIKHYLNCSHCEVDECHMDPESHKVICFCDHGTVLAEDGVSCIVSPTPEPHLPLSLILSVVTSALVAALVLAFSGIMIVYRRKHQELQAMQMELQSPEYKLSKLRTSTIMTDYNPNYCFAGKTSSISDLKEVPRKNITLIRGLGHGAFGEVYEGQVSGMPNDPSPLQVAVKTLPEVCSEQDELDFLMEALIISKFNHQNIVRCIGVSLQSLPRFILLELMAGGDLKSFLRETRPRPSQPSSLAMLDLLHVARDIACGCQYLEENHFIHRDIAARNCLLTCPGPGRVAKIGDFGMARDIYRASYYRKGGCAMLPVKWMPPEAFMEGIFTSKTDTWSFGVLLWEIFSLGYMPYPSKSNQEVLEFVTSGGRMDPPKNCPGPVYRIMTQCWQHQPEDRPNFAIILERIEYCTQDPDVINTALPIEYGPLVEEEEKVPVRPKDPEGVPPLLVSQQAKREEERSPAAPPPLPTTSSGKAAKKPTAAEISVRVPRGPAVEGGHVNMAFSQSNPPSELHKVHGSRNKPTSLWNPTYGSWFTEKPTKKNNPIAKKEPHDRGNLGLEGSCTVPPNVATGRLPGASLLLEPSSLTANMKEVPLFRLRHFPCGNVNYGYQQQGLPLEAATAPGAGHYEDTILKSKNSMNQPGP
EXPERIMENTAL_PARAMETERS: at 1 µM
Label rule met when inhibition >= 6%; otherwise rule not met.

Would you please look over these solved cases?
| SMI | DISCRETE_LABEL |
| --- | --- |
| CCc1nn2ncccc2c1-c1ccnc(NC2CC2)n1 | rule not met |
| COc1ccc2c(-c3ccnc(Nc4cccc(OC(F)(F)F)c4)n3)cnn2n1 | rule not met |
| CC(=O)Nc1cccc(C#Cc2cncnc2Nc2ccc(OCc3cccc(F)c3)c(Cl)c2)c1 | rule met |
| CCn1c(-c2nonc2N)nc2ccccc21 | rule met |

Task: Identify whether the reported inhibition of the following molecule is 6% or greater: `CCn1cc(-c2ccnc3[nH]ccc23)c(-c2cccc(NC(=O)Nc3ccc(OCc4ccccc4)cc3)c2)n1`
Output: rule not met
